- Protocol details: yeast display, Sf9 membrane polyspecificity reagent, FACS + sequencing; frameworks hold sequencing errors
Assay endpoint: polyreactivity (PSR sort gate)

Some sequences with known polyreactivity (PSR sort gate) results, for comparison:
# Sequence code, polyreactivity (PSR sort gate)
measured = [
    ("QVQLVESGGGLVQAGGSLRLSCAASGNTIDSYAMGWYRQAPGKERELVAAISTSGGSTYYADSVKGRFTISRDNAKNTVYLQMNSLKPEDTAVYYCNATWTITYDYWGQGTQVTVSS", "low polyreactivity"),
    ("QVQLVESGGGLVQAGGSLRLSCAASGSTCFDYAMGWYRQAPGKERELVAAISRSGDTNYADSVKGRFTISRDNAKNTVYLQMNILKPEDTAVYYCAKDWAYRRHWVGFYYWGQGTQVTVSS", "low polyreactivity"),
    ("QVQLVESGGGLVQAGGSLRLSCAASGFTFGSNTMGWYRQAPGKERELVAAITTSGDSTYYADSVKGRFTISRDNAKNTVYLQMNSLKPEDTAVYYCAAERRYGRYYRLVRLLGQGTQVTVSS", "high polyreactivity"),
    ("QVQLVESGGGLVQAGGSLRLSCAASGITFYINAMGWYRQAPAKERELVAVIDSRGSSTFYADSVKGRFTISRDNAKNTVYLLMNSLKPEDTAVYYCAVEGYPGRYRDPGDLYYYWGQGTQVTLSS", "low polyreactivity"),
    ("QVQLVESGGGLVQAGGSLRLSCAASGSTFGYYAMGWYRQAPGKERELVATITWSGGSTNYADSVKGRFTISRDNAKNTVYLQMNSLKPEDTAVYYCAADLKYWYFGLAFIEVDYWGQGTQVTVSS", "low polyreactivity"),
]

Please report the measured polyreactivity (PSR sort gate) for QVQLVESGGGLVQAGGSLRLSCAASGSIFYENAMGWYRQAPGKEREFVATIDLIGDRTYYADSVKGRFTISRDNAKNTVYLQMNCLKPEDTAVYYCAAERVGVFFRYDYWGQGTQVTVSS
low polyreactivity

Please report the measured polyreactivity (PSR sort gate) for QVQLVESGGGLVQAGGSLRLSCAASGSIFDYYVMGWYRQAPGKERELVAAISWSGASTYYADSVKGRFTISRDNAKNTVYLHMNSLKPEDTAVYYCAADYGVNTLIDYDYWGQGTQVTVSS
low polyreactivity

Please report the measured polyreactivity (PSR sort gate) for QVQLVESWGGLVQAGGSLRLSCAASGRIFSYYAMGWYRQAPGKERELVAAISRTGGTTYYADSVKGRFTISRDNAKNTVYLQMNSLKPEDTAVYYCNAVKAPYLRYDYWGQGTQVTVSS
high polyreactivity

Please report the measured polyreactivity (PSR sort gate) for QVQLVESGGGLVQAGGSLRLSCAASGFTFQRYAMGWYRQAPGKERELVAAISVRGTRTYYADSVKGRFTISRDNAMNTVYLQMNSLKPEDTAVYYCNADWERDVQDDYWGQGTQVTVSS
high polyreactivity

Please report the measured polyreactivity (PSR sort gate) for QVQLVESGGGLVQAGGSLRLSCAASGITFWNYAMGWYRQAPGKERELVARISRGGSTNYADSVKGRFTISRDNAKNTVYLQMNSLKPEDNAVYYCAARWYSSTQTGNYWGQGTQVTVSS
high polyreactivity

Please report the measured polyreactivity (PSR sort gate) for QVQLVESGGGLVQAGGSLRLSCAASGRIFSYYAMGWYRQAPGKERELVASISRSGGSTYYANSVKGRFTISRDNAKNTVYLQMNSLKPEDTAVYYCNAEARYTGFAYSYFNSDYWGQGTQVTVSS
low polyreactivity

----------
- Protocol details: yeast display, Sf9 membrane polyspecificity reagent, FACS + sequencing; frameworks hold sequencing errors

# Sequence code, polyreactivity (PSR sort gate)
rows = [
    ("QVQLVDSGGGLVQAGGSLRLSCAASGSILESNVMGWYRQAPGKERELVASISSSGDSTYADSVKGRFTISRDNAKNTVYLQMNILKPEYTAVYYCAADRWYWTYALYYWGQGTQVTVSS", "low polyreactivity"),
    ("QVQLVESGRGLVQAGGSLRLSCAASGFTFDGNAMGWYRQAPGIERELFARITWDDGSTYYADSVKGRFTISRDNAKNTVYLQMNSLNPEDTAVYYCAAEWCTDGYQVLPVDYDYWGQGTQVTVSS", "low polyreactivity"),
]

----------
- Protocol details: yeast display, Sf9 membrane polyspecificity reagent, FACS + sequencing; frameworks hold sequencing errors
Assay endpoint: polyreactivity (PSR sort gate)

Some sequences with known polyreactivity (PSR sort gate) results, for comparison:
# Sequence code, polyreactivity (PSR sort gate)
records = [
    ("QVQLVESGGGLVQAGGSLRLSCAASGISFGVYSLGWYRQAPGKERELVAAISSSGTSTYYADSVKGRFTISRDNAKNTVYLQMNSLKPEDTAVYYCAADYKRNQEVDYWGQGTQVTVSS", "high polyreactivity"),
    ("QVQLVESGGGLVQAGGSLRLRCAASGTTTSNNSMGWYRQAPGKERELVADMSTNGDSTSYADSVKGRYTISRDNAKNTVYLQMNSLKPVDTAVYYCAASTYVTYWEYDYWGQGTQVTVSS", "low polyreactivity"),
    ("QVQLVESGGGLVQAGGSLRLSCAATGSIFRRNAMGGYRQAPGKERELVAAISSNGGSTYYADSVKGRFTISRDNAKNTVYLQMNSLKPEDTAVYYCNALGRVRYPFDYWGQGTQVTVSS", "high polyreactivity"),
    ("QVHLVESGGGLVQAGGSLRLSCAASGRIFHYYMVWYTQAPGKERELVAVISSGDGTYYADSVKRRFTISRDNAKNTVYLQMNSLKPEDTAVYYCAADAPREYVDHYKYDDDYWGQGTQETVSS", "low polyreactivity"),
    ("QVQLVESGGGLVHAGGSLRLSCAASGFIFFSNAMGWYRQAPGKERELVATISTSSGSTYADSVKGRFTNSRDNAKNTVYLQMNSLKPEDTAVYYCAADTQGYDYDYWGQGTQVTVSS", "low polyreactivity"),
    ("QLQLVQSGGGLVQAGGILRLSCAPSGSIFTPNTMGWYSQAPGKERELVAAITIRGGSTYYADSVKGSFTISRDNANITVYLQMNSLKPEDTAVYYCATEYGLRYYLVDYWGQGTQVTVSS", "low polyreactivity"),
]

Please report the measured polyreactivity (PSR sort gate) for QVQLVESGGGLVQAGGSLRLSCAASGRIFRYKAMGGYRQAPGKEREFVAAISSSGGSTFYADSVKGRFTISRDNAKNTVYLQMNSLIPEDTAAYYCAADDAGFWYYYYGRYVTFDYWGQGTQVTVSS
low polyreactivity

Please report the measured polyreactivity (PSR sort gate) for QVQLVESGGGLVQAGGSLRLSCAASGSTFKWYAMGLYRQAPGKERELVAAIDSRGGSTYYADSVKGRFTISRDNAKNTVFLQMISLKPEDTAVYYCNIYPHYSFQSHNYWGQGTQVTVSS
high polyreactivity

Please report the measured polyreactivity (PSR sort gate) for QVQLVESGGGLVQAGGSRRLSFAASGFTFKYYAMGWYRQAPGKERELVDAISRRGGSTSYADSVKGRFTISRDNAKNTVYLKMNSLKPEDTSVYYLAADSSFERSSDYWGQGTQVTVSS
high polyreactivity

Please report the measured polyreactivity (PSR sort gate) for QVQLVESGGGLVQAGGSLRLSCAASGRTFGYYAMGWYRQAPGKERELVAALSTSGGSTHYADSVKGRFTISRDNAKNTVSLQMNSLKPEDTAVYYCNARLRTGTPYKYVSYNSWGQGTQVTVSS
high polyreactivity

Please report the measured polyreactivity (PSR sort gate) for QVQLVESGGGLVQAGGSLRLSCAASGSIFAPYAMGWYRQAPGKERELVATISSIGTSTYYADSVKGRFTISRDNAKNTVYLQMNSLKPEDTAVYYCAADQSGGYPDNYWGQGTQVTVSS
low polyreactivity

----------
- Protocol details: yeast display, Sf9 membrane polyspecificity reagent, FACS + sequencing; frameworks hold sequencing errors
Assay endpoint: polyreactivity (PSR sort gate)

Some sequences with known polyreactivity (PSR sort gate) results, for comparison:
# Sequence code, Assay endpoint, Result
rows = [
    ("QVQLVESGGGLVQAGGSLRLSCAASGSIFLTYAMGWYRQAPGKESELVAAISSGDSTNYTDSVKGRFTISRDNAKNTVYLQMNSLKPEDTAVYYCAADLTYTMDHWGQGTQVTVSS", "polyreactivity (PSR sort gate)", "low polyreactivity"),
    ("QVQLVESGGGLVQAGGSLRISCAASGFTFNKYAMGWYRQAPGKERELVAALTVSGSRTYYADSVKGRFTISRDNAKNTVYLQMNSLKPEDTAVYYCAARKWYYYLRPWTSVGGYYWGQGTQVTVSS", "polyreactivity (PSR sort gate)", "high polyreactivity"),
    ("QVQLVESGGGLVQAGGSLRISCAASGRIFRVNGMGWSRQEPGKESELVAAIRRSGGSTYYADSVKGRFTISRDYAKKSVYLQMNSLKPEDTAVYFCAAAVRQSSYTRYDSWGQGTQVTVSS", "polyreactivity (PSR sort gate)", "high polyreactivity"),
    ("QVQLVESGGGLVQAGGSLRLSCAASGSIFKFYTMGWYRQAPGKERELVAAISWSGGRTYYADSVKGRFTISRDNAKNTVYLQMNSLKPEDTAVYYCAVPRVGLHGIGSDYWGQGTQVTVSS", "polyreactivity (PSR sort gate)", "high polyreactivity"),
    ("QVQLVESVGGLDQAGGSLRLSGAASGSIFAHYAMGWYRQAPGKETELVARISWSGGSTYYADSVKGRFTISRDNAKNTVYLQMNSLKPEDTAVYYCARAGRSWDTLYKYYLEHDYWGQGTQETVSS", "polyreactivity (PSR sort gate)", "low polyreactivity"),
]

Please report the measured polyreactivity (PSR sort gate) for QVQLVESGEGLVQAGGRLRLSCAPSGSTFMTYAMGWYRQAPGKERELVAAIRWSGGGTYYADSVKGRFTISRDNAKNTVYLQMNSLKPEDTAVYYGAADHFNYTPGRDYWGQGTQVTVSS
low polyreactivity

Please report the measured polyreactivity (PSR sort gate) for QVQLVESGGGLVQAGGSLRLSCAASGRIFKYYAMGWYRQPPGKERELVAAISRSSGRTYYADSVKGRCTISRDNAKNTVYFQMIRLKPEDTAVYYCNALPSTVYLTYDYWGLGTQVTVSS
high polyreactivity

Please report the measured polyreactivity (PSR sort gate) for QVQLVESGGGLVQAGGSLRLSCAASGRTFQVNAMGWYREAPGKERELVAAISIRSGRTYYADSVKGRFTISRYNAKNTVYLQMNSLKPEDTAVYYCAAYRISVYGVGYWGQGTQVTVSS
high polyreactivity

Please report the measured polyreactivity (PSR sort gate) for QVQLVESGGGLVQAGGSLRLSCAASGYTFYDYAMGWYRQAPGKERELVARINGGGGTNYADSVKGRFTISRDNAKNTVYLQMNSLKPEDTAVYYCAADVYFRQGDVDLLRYDYWGQGTQVTVSS
low polyreactivity
